Reference source: PubChem BioAssay (NCI)

- System: SF-539 CNS
- experiment: NCI tumour cell line growth inhibition, 48 h
Each entry below carries its reported TGI.

molecule	endpoint.unit	qual	TGI
CC1(C)CC(=O)C(CCC(=O)/C=C/c2ccccc2)C(=O)C1	µM	>	100
CC[C@]1(O)CC(OC2CC(N(C)C)C(O)C(C)O2)c2c(cc3c(c2O)C(=O)c2c(O)cccc2C3=O)[C@@H]1C(=O)OC (some centres undefined)	µM	=	2.51
Cc1c2c(c(C)n1-c1ccccc1)C(=O)N(CCCCN1CCN(c3ccccc3)CC1)C2=O	µM	=	26.5
CCCCON(OC(=O)c1ccccc1)C(=O)c1ccccc1	µM	>	100
CCOc1ccc2nc(-c3ccc(O)cc3)sc2c1	µM	>	100
COC1=C2CC(C)CC(OC)C(O)C(C)/C=C(\C)C(OC(N)=O)C(OC)/C=C\C=C(/C)C(=O)NC(=C(C=NC(C)(C)C)C1=O)C2=O (centres undefined)	µM	=	24.2
Nc1sc2c(c1C(=O)c1ccc(Cl)c(Cl)c1)CCCC2	µM	>	100
O=C(Nc1cccc(-n2ccc3c(NC(=O)c4ccccc4)nccc32)c1)c1ccc(N2CCOCC2)c(C(F)(F)F)c1	µM	=	3.42
O=C1OC(c2ccccc2)=N/C1=C\c1cccnc1	µM	>	100
